experimental_target: recombinant human renin (Homo sapiens)
Sequence (P00797 67-406): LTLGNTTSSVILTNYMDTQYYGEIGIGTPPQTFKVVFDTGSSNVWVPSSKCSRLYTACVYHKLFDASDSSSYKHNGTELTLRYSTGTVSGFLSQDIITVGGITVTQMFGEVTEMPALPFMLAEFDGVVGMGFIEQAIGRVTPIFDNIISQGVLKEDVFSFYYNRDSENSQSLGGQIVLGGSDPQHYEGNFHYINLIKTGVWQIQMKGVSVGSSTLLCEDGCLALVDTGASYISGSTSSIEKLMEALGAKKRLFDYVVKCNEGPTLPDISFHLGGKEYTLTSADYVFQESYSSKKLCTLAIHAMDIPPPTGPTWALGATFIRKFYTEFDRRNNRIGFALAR
experiment_description: In-vitro fluorescence assay for identification of renin-inhibitory activity
condition_details: recombinant human renin 10 nM, FRET substrate 5 μM, pH 7.2; read-out: Renin selectivity IC50
pIC50: −log10 of the molar value.
observable: pIC50

These recorded examples may help you get a feel for the data.
- CC[C@H](C)[C@H](NC(=O)C[C@H](O)[C@H](Cc1ccccc1)NC(=O)[C@@H](NC(=O)Cc1ccccc1OC)C(C)C)C(=O)N[C@H](C(=O)O)C(C)C [Compound 28]: < 4.52
- CC[C@H](C)[C@H](NC(=O)C[C@H](O)[C@H](Cc1ccccc1)NC(=O)[C@@H](NC(=O)CCc1ccccc1)C(C)C)C(=O)N[C@H](C(=O)OCc1ccccc1)C(C)C [Compound 1]: < 4.52
- CC[C@H](C)[C@H](NC(=O)C[C@H](O)[C@H](Cc1ccccc1)NC(=O)[C@@H](NC(=O)CCCc1ccccc1)C(C)C)C(=O)N[C@H](C(=O)O)C(C)C [Compound 5]: 4.70
- CC[C@H](C)[C@H](NC(=O)C[C@H](O)[C@H](Cc1ccccc1)NC(=O)[C@@H](NC(=O)C(C)(C)Oc1ccc2ccccc2c1)C(C)C)C(=O)N[C@H](C(=O)OCc1ccccc1)C(C)C [Compound 3]: < 4.52

In the following, a different compound is considered.
Provide the documented pIC50 with recombinant human renin (Homo sapiens) as the system for CC[C@H](C)[C@H](NC(=O)C[C@H](O)[C@H](Cc1ccccc1)NC(=O)[C@@H](NC(=O)Cc1ccc(OC)cc1)C(C)C)C(=O)N[C@H](C(=O)O)C(C)C [Compound 15] < 4.52
